These data points were gathered from PubChem BioAssay (NCI).

Would you kindly list GI50 for each of these compounds?
tested on: MCF7 breast; assay: NCI tumour cell line growth inhibition, 48 h

Form: compound = Cn1cc(-c2ccc3nnc(Sc4ccc5ncccc5c4)n3n2)cn1 ; GI50 = 97.5 µM

Looking up Cc1nnc2n1N=C(c1ccc(Cl)cc1Cl)/C(=C/c1ccc(-c3ccc([N+](=O)[O-])cc3Cl)o1)S2 , I see its GI50 listed as 2.06 µM

GI50 recorded for this compound, CC(C)(C)OC(=O)NCCCn1c2c(c3ccccc3c1=O)C(=O)c1ccccc1-2 , is 15 µM

Lab book: GI50 of Cc1nc2c(n1C)C(=O)c1ccccc1C2=O noted as 46.1 µM

====

Exercise: for every item that follows, state its recorded TGI.
tested on: NCI-H226 lung; experiment: NCI tumour cell line growth inhibition, 48 h
Where a SMILES comes first, the peptide text is derived from it. [ ]: non-standard residue; d: D form. The star is where a group is joined. Bn2Val = CC(C)[C@@H](C(=O)*)N(Cc1ccccc1)Cc1ccccc1; NH(4-Cl-benzyl) = Clc1ccc(CN*)cc1; NMeV = CN[C@H](C(=O)O)C(C)C; dNMeA = CN[C@H](C)C(=O)O

Lookup result for O=C1CC(=O)n2cnc3cccc(c32)N1 ; measured TGI: > 100 µM

Lab note: C1CC[N-]CC1.CC(=N\O)/C(C)=N/O.CC(=N\O)/C(C)=N/O.OC1[CH-]CCCC1.[Co+2] gave TGI of > 100 µM

The reported TGI of the compound CC1=Nc2ccccc2/C1=C\c1c(C)[nH]c2ccccc12 was 33.2 µM

Lab book: TGI of COc1cccc(N[C@@H]2c3cc4c(cc3C(c3cc(OC)c(O)c(OC)c3)[C@H]3C(=O)OCC32)OCO4)c1 (some centres undefined) noted as 2.05 µM

Documented TGI of CCCCCCCCCCCCCCCCCCNc1nc(=O)n(C2CC(O)C(COP(=O)(O)O)O2)cc1F (centres undefined) : > 100 µM

The compound identified as CN1CC2=C(NC(=S)NC2c2ccccc2)/C(=C/c2ccccc2)C1 (centres undefined) registered its TGI at > 100 µM

Input O=c1cc(N/N=C/c2ccc(F)cc2)c2cc(Cl)ccc2[nH]1 . Output TGI: > 100 µM

Notebook: Cc1c(NC(=S)NC(=O)c2ccc([N+](=O)[O-])cc2)c(=O)n(-c2ccccc2)n1C , TGI read as > 100 µM

The recorded TGI for c1ccc2c(-c3nc(-c4c[nH]c5ccncc45)cs3)c[nH]c2c1 is 17.7 µM

Looking up O=c1oc(C(C(F)(F)F)C(F)(F)F)nc2ccccc12 , I see its TGI listed as > 100 µM

So for CC(=O)O[C@]1(C)OC(=O)[C@@H](CC(C)C)N1[N+](=O)[O-] , the logged TGI turned out to be > 100 µM

Reported TGI of COc1cc(C2C(Cl)C(=O)N2c2c(C)n(C)n(-c3ccccc3)c2=O)ccc1O (centres undefined) : 53.8 µM

Entry under test: O=c1ncccn1C1OC(CO)C(O)C1O (centres undefined) . Its TGI was > 100 µM

Just so you know, measured TGI for COc1ccc(C(O)c2cc3c(N)c(C(=O)Nc4cccc(Cl)c4)sc3nc2C)cc1 (centres undefined) came out at > 43 µM

Summary for this compound, CSCCCNC(=O)c1ccc2c(c1)/C(=C/c1[nH]c(C)cc1C)C(=O)N2 : TGI is > 100 µM

The compound listed as Cc1nc(Nc2cccnc2)sc1C(=O)/C=C/c1ccc(Cl)cc1 shows TGI equal to 8.12 µM

Measured TGI, CN(C)/N=N/c1nc2c(c(=O)n(C)c(=O)n2C)n1CC(O)CO (centres undefined) : > 100 µM

Quick note, TGI for CC(C)[C@H](NC(=O)[C@H](C(C)C)N(Cc1ccccc1)Cc1ccccc1)C(=O)N(C)[C@H](C(=O)N1CCC[C@H]1C(=O)N(C)[C@H](C)C(=O)NCc1ccc(Cl)cc1)C(C)C (Bn2Val-V[NMeV]P[dNMeA]-{NH(4-Cl-benzyl)}) landed at 9.66 µM

According to the records, this compound CC1CCSC(N(C(=O)N(C)c2ccccc2)c2ccccc2)=N1 (centres undefined) displays TGI of > 100 µM

The recorded TGI for entry Cn1cc(-c2ccc3nnc(Sc4ccc5ncccc5c4)n3n2)cn1 equals > 100 µM

# compound COc1ccc(/C(Cl)=C/c2cc(OC)ccc2OC)cc1 ; its TGI = > 100 µM

Item: O=C(O)COc1cc(-c2ccccc2)nc2cc(F)ccc12 | TGI: > 100 µM

So for c1ccc2c(c1)oc1ccc3nsnc3c12 , the logged TGI turned out to be > 100 µM

// TGI lookup, compound = COc1ccc(C(=O)C(CC2C(=O)NC(=O)NC2=O)c2ccc(OC)cc2)cc1 (centres undefined) , result: > 100 µM

// TGI lookup, compound = CCOC(=O)N1CCc2cc(OC)c(OC)cc2/C1=C\c1ccc(OC)c(OC)c1 , result: 61.2 µM

Consider COc1ccc(OC)c(SC(CC(=O)c2ccccc2)c2ccccc2)c1 (centres undefined) . Its measured TGI is 31.9 µM

Record COc1ccc(CCc2cc(OC)cc(OC)c2)cc1 . Reported TGI: > 100 µM

The compound listed as CN1C(=O)C(O)C[C@@H]1c1ccccc1 (some centres undefined) has a reported TGI of > 100 µM

Short answer for O=S(=O)(NCn1ccc2ccccc21)c1ccccc1 : TGI was > 100 µM

C1=C2CCCC3=Cc4ccccc4OC23Oc2ccccc21 has a reported TGI of > 100 µM

Note to self: TGI recorded for Cc1nc(Nc2ccccn2)sc1C(=O)/C=C/c1ccc(Cl)cc1 was 26 µM

In plain terms, CN(C)c1nc2ccccc2c2c1c1c(n2Cc2ccccc2)-c2ccccc2C1=O has a documented TGI of > 100 µM

Noted for CCN(CC)C(=S)SS(=O)(=O)c1cccc(N)c1 : its TGI reads > 100 µM

The recorded TGI for C=CC[n+]1c2ccccc2n2cc([N+](=O)[O-])ccc21 is 69.3 µM

For CN(C)CCCNc1ccc2nnn3c4ccc(O)cc4c(=O)c1c23 the compound record lists TGI as 17.3 µM

Entry CC(C)C(C/C=C1\CC(CO)(COC(=O)C2CCCCC2)OC1=O)C(C)C (centres undefined) ; TGI = 38.3 µM

# TGI of O=C(Nc1ccc(-c2nc(-c3cccc(OCCN4CCOCC4)c3)c(-c3ccnc(Br)c3)[nH]2)cc1)c1ccccc1 = > 100 µM

The compound listed as Cc1ccccc1N=C(N)Nc1ccccc1C shows TGI equal to > 100 µM

Data point: Cn1cc(C2=C(c3cn(C)c4ccc(Cl)cc34)C(=O)NC2=O)c2ccccc21 ; TGI = 17.4 µM

====

Kindly state TGI for each of the entries shown.
system: OVCAR-5 ovarian; test: NCI tumour cell line growth inhibition, 48 h

Recorded result, C#Cc1c(C)c(/C=C/C(C)=C/C(=O)OC)n(C)c1C , TGI: > 100 µM

Kindly note the recorded TGI for Cc1nn2c(/C=C3/C(=O)Nc4cc(Cl)ccc43)c(-c3ccccc3)nc2s1 , which is > 100 µM

get_value(item= O=c1c(-c2ccccc2)c(SCCO)n(-c2ccccc2)c(=S)n1-c1ccccc1 , readout=TGI) returns > 100 µM

====

Would you kindly list TGI for each of these molecules?
test system: SK-MEL-5 melanoma; assay: NCI tumour cell line growth inhibition, 48 h

# molecule CCOP(=O)(OCC)/C(=C/c1cccs1)CC(C)=O ; its TGI = > 100 µM

Reported TGI of COc1cc(NC(=O)CCSc2nc3ccc(C)cc3c(=O)n2Cc2ccccc2)cc(OC)c1OC : > 100 µM

So, CC1(C)CC2(CC(C)(C)N1O)NC(=O)OC2=O ? Its TGI was > 100 µM

The value of TGI measured for the molecule O=c1[nH]c2nc(NC3CCOCC3)ncc2cc1Oc1ccc(F)cc1F turned out to be > 25 µM

====

tested on: CCRF-CEM leukemia; assay: NCI tumour cell line growth inhibition, 48 h
Parameter Measured: TGI

In plain terms, COc1ccc(-c2nc(-c3nc4ccc(F)cc4[nH]3)c3ccccn23)cc1 has a documented TGI of > 100 µM

Per the record, NNC(=O)C(=O)N/N=C1\CCC(=O)CC1C(=O)CCC(=O)Nc1ccc(Cl)cc1 (stereo not given) has TGI of > 100 µM

compound CC(=O)[O-].[Mn+3].[O-]c1ccccc1C=NCCNCCN=Cc1ccccc1[O-] , TGI observed: > 100 µM

Reported TGI ( CN(C)CCn1c(CO)nc2c1c(=O)n(C)c(=O)n2C ) = > 100 µM

Kindly note the recorded TGI for O=c1oc(C(C(F)(F)F)C(F)(F)F)nc2ccccc12 , which is > 100 µM

Documented TGI of COc1cc2cc(C(=O)N3CC(COS(C)(=O)=O)c4ccc(O)cc43)[nH]c2c(OC)c1OC (stereo not given) : > 100 µM

Measured TGI of Cc1c(NC(=S)NC(=O)c2ccc([N+](=O)[O-])cc2)c(=O)n(-c2ccccc2)n1C : > 100 µM

TGI recorded for this compound, C1=C2CCCC3=Cc4ccccc4OC23Oc2ccccc21 , is 25.9 µM

Sample CC(=O)OCC(=O)[C@@]12OC(C)(C)O[C@@H]1C[C@H]1[C@@H]3CC(C=O)=C4C=C(OCCCl)CC[C@]4(C)[C@@]3(F)[C@@H](O)C[C@@]12C ; TGI observed: > 100 µM

# TGI of NCc1cccc(O)c1O = > 100 µM

Per the records, this compound ( O=C(c1cccs1)N1CCN(C(=O)c2cccs2)C1=S ) has TGI equal to 6.87 µM

The compound COc1ccc2[nH]c(O)c(/C=c3/cc4c(c(-c5ccc(F)c(OC)c5)n3)=Nc3ccccc3-4)c2c1 showed TGI equal to 9.88 µM

Value of TGI reported for the compound O=C1CC(=O)n2cnc3cccc(c32)N1 is > 100 µM

get_value(item= Cc1ccccc1-c1nc2c(C(=O)NCCN(C)C)cccc2[nH]1 , readout=TGI) returns > 100 µM

TGI in this record for c1ccc2c(-c3nc(-c4c[nH]c5ccncc45)cs3)c[nH]c2c1 : 3.52 µM
